Hey, just so you know, these numbers are from paper PMC6124754.

# Tested on: HFF, HEK293 and A431 cell lines
# Assay type: cell-based, human
recorded.metric: Toxicity in human cell lines (in words)

Examples from the recorded data:
| compound | Toxicity in human cell lines (in words) |
| --- | --- |
| Cc1ccc(-n2nc(C(C)(C)C)cc2Nc2nc3ccccc3nc2NCCCO)cc1 [VCC389777] | non-toxic |
| COc1ccc(/C=C/c2nc(NCCCN(C)C)c3cc4ccccc4cc3n2)cc1 [VCC340963] | toxic |
| CN(C)CCCNc1nc(/C=C/c2ccc(Cl)cc2)nc2cc3ccccc3cc12 [VCC450822] | toxic |
| Brc1c2ccccc2c(Br)c2nc(-c3ccco3)c(-c3ccco3)nc12 [VCC450327] | non-toxic |

Please provide the recorded Toxicity in human cell lines (in words) for COc1ccc(/C=C/c2nc(NCCCN3CCOCC3)c3cc4ccccc4cc3n2)cc1 [VCC478498] , tested on HFF, HEK293 and A431 cell lines. toxic

###

# target.system: UniProtKB Q9UNQ0
# Sequence (Q9UNQ0 1-655): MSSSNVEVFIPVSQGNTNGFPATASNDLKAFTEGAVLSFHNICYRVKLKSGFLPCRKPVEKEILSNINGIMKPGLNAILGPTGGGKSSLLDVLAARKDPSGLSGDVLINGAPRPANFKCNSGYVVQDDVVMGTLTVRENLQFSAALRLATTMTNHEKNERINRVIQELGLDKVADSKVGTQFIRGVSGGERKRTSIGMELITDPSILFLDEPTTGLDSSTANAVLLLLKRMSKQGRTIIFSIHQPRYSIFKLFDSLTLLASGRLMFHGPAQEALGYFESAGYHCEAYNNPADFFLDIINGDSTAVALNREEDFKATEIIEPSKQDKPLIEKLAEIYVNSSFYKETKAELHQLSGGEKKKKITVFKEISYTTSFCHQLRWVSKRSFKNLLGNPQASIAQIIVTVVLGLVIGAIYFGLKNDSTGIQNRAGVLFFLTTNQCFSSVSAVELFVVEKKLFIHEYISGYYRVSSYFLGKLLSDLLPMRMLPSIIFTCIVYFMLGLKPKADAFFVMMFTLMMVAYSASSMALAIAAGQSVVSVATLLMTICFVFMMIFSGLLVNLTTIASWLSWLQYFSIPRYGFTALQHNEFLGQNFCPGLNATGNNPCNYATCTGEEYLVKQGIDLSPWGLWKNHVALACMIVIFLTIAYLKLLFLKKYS
# test.description: Cellular transport assay, DCV or mitoxantrone uptake in ABCG2-overexpressing PLB cells; further: key: 0: no observed effect; +: effect observed in the assay; In the ATPase assay showing only inhibition, the - sign is applied
# Type: cell-based
# Parameters: expressed in transfected cells; host or cells: PLB (human lymphoblastoid) cells, lentiviral transduction
# condition.description: S6 summary table
# Protocol: For cellular transport assays, mammalian PLB (lymphoblastoid) cell lines, overexpressing ABCB1 or ABCG2 were used. […] Fluorescence of the cells was detected using a Victor X3 plate reader (for Calcein, exc. at 485 nm, em. at 535 nm) or the Enspire 2300 (Perkin Elmer) plate reader (for DCV, exc. at 360 nm, em. at 440 nm). Kinetics of fluorescence intensity changes were analyzed to determine relative inhibition, compared to that of a reference agent, providing full inhibition of the ABC transporter. […]
recorded.metric: ABC transporter transport assay, ABCG2 (summary)

Examples from the recorded data:
| smiles.repr | result |
| --- | --- |
| CN(C)CCCNc1nc(/C=C/c2ccc(Cl)cc2)nc2cc3ccccc3cc12 | 0 |
| CC(C)CCNc1nc2cc3ccccc3cc2nc1NCCC(C)C | + |
| Brc1c2ccccc2c(Br)c2nc(-c3ccco3)c(-c3ccco3)nc12 | + |
| Cc1ccc(-n2nc(C(C)(C)C)cc2Nc2nc3ccccc3nc2NCCCO)cc1 | + |
| COc1ccc(/C=C/c2nc(NCCCN(C)C)c3cc4ccccc4cc3n2)cc1 | + |
| COc1ccc(/C=C/c2nc(NCCCN3CCOCC3)c3cc4ccccc4cc3n2)cc1 | + |

Would you kindly share the measured ABC transporter transport assay, ABCG2 (summary) for `Cc1ccc(C)c(SCc2nc3cc4ccccc4cc3nc2CSc2cc(C)ccc2C)c1` ? 0
